Experiment: Antagonist activity at PAR4 in mouse washed platelets assessed as inhibition of gamma-PAR4 agonist peptide (AYPGKF-NH2)-induced platelet aggregation preincubated for 5 mins followed by peptide addition and measured after 5 mins by aggregometer
ENDPOINT_NAME: pIC50
The quantity pIC50 is defined as the negative base-10 logarithm of the molar concentration.

Examples from the recorded data:
Which pIC50 is reported for this compound? COc1ncc2c(-c3nc4cc(F)c5c(c4s3)C[C@H](COC(=O)Nc3ccc(OC)c(F)c3)O5)cc(C)cc2n1
6.77

Same lookup for COc1cc(C)c2nc(-c3cc(C)cc4nc(OC)ncc34)sc2c1 , please.
6.79

One more compound: COc1cc(Cl)c2nc(-c3cc(C)cc4nc(OC(C)C)ncc34)sc2c1
6.34

Same read-out for COc1ncc2c(-c3nc4cc(F)c5c(c4s3)C[C@H](COC(=O)Nc3ccc(C)cc3F)O5)cc(C)cc2n1 ?
7.29

Also need COc1cc(OC)c2nc(-c3cc(C)cc4nc(OC)ncc34)sc2c1 , thanks.
6.65

Queued: COCc1ncc2c(-c3nc4cc(F)c(OCCOC(=O)Nc5cccc(C#N)c5)cc4s3)cc(C)cc2n1
7.16

Then this compound: COC(=O)OC[C@H]1Cc2c(c(F)cc3nc(-c4cc(C)cc5nc(OC)ncc45)sc23)O1
6.27

What do you have for COc1cc(Cl)c2nc(-c3cc(C)cc4cnc(OC(C)C)nc34)sc2c1 ?
6.11

Read the next record carefully.
Would you kindly share the measured pIC50 for COc1cc(Cl)c2nc(-c3cc(C)cc4nc(OC)ncc34)sc2c1 ?
7.34
